System: Tyrosine-protein kinase ABL1 (Homo sapiens), P00519 [Q252H]
assay.context: at 1 µM
Outcome: fulfilled for inhibition of at least 30%; not fulfilled for anything lower.

Task: Textbook exercise: given the entry Fc1ccc(-c2nn3ncccc3c2-c2ccnc(Nc3ccc4c(c3)OCCO4)n2)cc1 , state whether its inhibition is greater than or equal to 30%.
Output: fulfilled

Task: Textbook exercise: given the entry NS(=O)(=O)c1ccc(Nc2ncc(-c3ccccc3)o2)cc1 , state whether its inhibition is greater than or equal to 30%.
Output: not fulfilled

Task: Textbook exercise: given the entry CC(=O)NCc1cccc(C#Cc2cncnc2Nc2ccc(OCc3cccc(F)c3)c(Cl)c2)c1 , state whether its inhibition is greater than or equal to 30%.
Output: not fulfilled

Task: Textbook exercise: given the entry COc1cc(Nc2nccc(Nc3ccc4c(C)n[nH]c4c3)n2)cc(OC)c1OC , state whether its inhibition is greater than or equal to 30%.
Output: fulfilled

Task: Textbook exercise: given the entry O=C(O[C@H]1CN[C@H](C#Cc2cc3ncnc(Nc4ccc(Cc5ccccc5)cc4)c3s2)C1)N1CCOCC1 , state whether its inhibition is greater than or equal to 30%.
Output: not fulfilled

Task: Textbook exercise: given the entry CCCN(CCS(C)(=O)=O)Cc1ccc(-c2ccc3ncnc(Nc4ccc(OCc5cccc(F)c5)c(Cl)c4)c3c2)o1 , state whether its inhibition is greater than or equal to 30%.
Output: not fulfilled

Task: Textbook exercise: given the entry COc1ccc2c(-c3ccnc(Nc4cccc(OC(F)(F)F)c4)n3)cnn2n1 , state whether its inhibition is greater than or equal to 30%.
Output: not fulfilled

Task: Textbook exercise: given the entry COc1cc(N2CCN(C(C)C)CC2)ccc1Nc1nc(Nc2ccc(F)cc2C(N)=O)c2cc[nH]c2n1 , state whether its inhibition is greater than or equal to 30%.
Output: not fulfilled

Task: Textbook exercise: given the entry CCn1cc(-c2ccnc3[nH]ccc23)c(-c2cccc(NC(=O)Nc3ccc(OCc4ccccc4)cc3)c2)n1 , state whether its inhibition is greater than or equal to 30%.
Output: not fulfilled

Task: Textbook exercise: given the entry N#Cc1c(NC(=O)c2ccc(F)cc2)sc2c1CCCC2 , state whether its inhibition is greater than or equal to 30%.
Output: not fulfilled

Task: Textbook exercise: given the entry COc1ccc2[nH]c3c4[nH]c5ccc(OC)cc5c4c4c(c3c2c1)C(=O)NC4=O , state whether its inhibition is greater than or equal to 30%.
Output: fulfilled

Task: Textbook exercise: given the entry CC1=C(C(=O)Nc2cc(Cl)c3[nH]ncc3c2)C(c2ccc(C(F)(F)F)cc2)CC(=O)N1 (stereo not given) , state whether its inhibition is greater than or equal to 30%.
Output: not fulfilled

Task: Textbook exercise: given the entry c1ccc(-c2nc3n(c2-c2ccc4c(c2)OCO4)CCC3)nc1 , state whether its inhibition is greater than or equal to 30%.
Output: not fulfilled

Task: Textbook exercise: given the entry CN(C)CCOc1ccc(-c2nc(-c3ccncc3)c(-c3ccc4c(c3)CC/C4=N\O)[nH]2)cc1 , state whether its inhibition is greater than or equal to 30%.
Output: fulfilled

Task: Textbook exercise: given the entry CCn1c(-c2nonc2N)nc2c(C#CC(C)(C)O)ncc(OC3CCNCC3)c21 , state whether its inhibition is greater than or equal to 30%.
Output: not fulfilled

Task: Textbook exercise: given the entry c1cc(-c2cnn3nc(N4CCOCC4)ccc23)nc(NC2CC2)n1 , state whether its inhibition is greater than or equal to 30%.
Output: not fulfilled

Task: Textbook exercise: given the entry Clc1ccc(-c2nn3ncccc3c2-c2ccnc(Nc3ccccc3)n2)cc1 , state whether its inhibition is greater than or equal to 30%.
Output: fulfilled

Task: Textbook exercise: given the entry CNC(=O)c1cccc(C#Cc2cncnc2Nc2ccc(OCc3cccc(F)c3)c(Cl)c2)c1 , state whether its inhibition is greater than or equal to 30%.
Output: not fulfilled

Task: Textbook exercise: given the entry O=S(=O)(CCNCc1ccc(-c2ccc3ncnc(Nc4ccc(OCc5cccc(F)c5)c(Cl)c4)c3c2)o1)c1ccccc1 , state whether its inhibition is greater than or equal to 30%.
Output: not fulfilled

Task: Textbook exercise: given the entry Fc1cccc(COc2ccc(Nc3ncnc4sc(-c5ccco5)cc34)cc2Cl)c1 , state whether its inhibition is greater than or equal to 30%.
Output: not fulfilled

Task: Textbook exercise: given the entry CCn1c(-c2nonc2N)nc2ccccc21 , state whether its inhibition is greater than or equal to 30%.
Output: not fulfilled

Task: Textbook exercise: given the entry COc1cc2c(cc1Nc1nc(Nc3ccsc3C(N)=O)c3cc[nH]c3n1)N(C(=O)CN(C)C)CCC2(C)C , state whether its inhibition is greater than or equal to 30%.
Output: not fulfilled

Task: Textbook exercise: given the entry N#Cc1c(NC(=O)CN2CCOCC2)sc2c1CCCC2 , state whether its inhibition is greater than or equal to 30%.
Output: not fulfilled

Task: Textbook exercise: given the entry COc1ccc(-c2oc3ncnc(N)c3c2-c2ccc(NC(=O)Nc3cc(C(F)(F)F)ccc3F)cc2)cc1 , state whether its inhibition is greater than or equal to 30%.
Output: fulfilled

Task: Textbook exercise: given the entry Cc1ccc(O)cc1Nc1ccnc2cc(-c3ccccn3)ccc12 , state whether its inhibition is greater than or equal to 30%.
Output: fulfilled

Task: Textbook exercise: given the entry COC(=O)Nc1nc2ccc(S(=O)(=O)c3ccc(NC(=O)Nc4cc(C(F)(F)F)ccc4F)cc3)cc2[nH]1 , state whether its inhibition is greater than or equal to 30%.
Output: not fulfilled

Task: Textbook exercise: given the entry Nc1nc(-c2cccc(Cl)c2)c(-c2ccc3ncccc3n2)s1 , state whether its inhibition is greater than or equal to 30%.
Output: not fulfilled

Task: Textbook exercise: given the entry CCNC(=O)O[C@H]1CN[C@H](C#Cc2cc3ncnc(Nc4ccc(OCc5cccc(F)c5)c(Cl)c4)c3s2)C1 , state whether its inhibition is greater than or equal to 30%.
Output: not fulfilled

Task: Textbook exercise: given the entry Nc1nc(-c2ccc(F)cc2)c(-c2ccc3ncccc3n2)s1 , state whether its inhibition is greater than or equal to 30%.
Output: not fulfilled

Task: Textbook exercise: given the entry CNC(=O)c1cncc(/C=C/c2ccccc2Cl)c1 , state whether its inhibition is greater than or equal to 30%.
Output: not fulfilled

Task: Textbook exercise: given the entry CC(C)(CO)CNC(=O)c1ccc2c(c1)/C(=N/Nc1ccc(S(N)(=O)=O)cc1)C(=O)N2 , state whether its inhibition is greater than or equal to 30%.
Output: not fulfilled

Task: Textbook exercise: given the entry Cc1ccc2c(-c3ccnc(Nc4ccccc4)n3)c(-c3ccc(F)cc3)nn2n1 , state whether its inhibition is greater than or equal to 30%.
Output: fulfilled

Task: Textbook exercise: given the entry [O-][S+]1CCN(Cc2ccc(-c3ccc4ncnc(Nc5ccc(OCc6cccc(F)c6)c(Cl)c5)c4c3)o2)CC1 , state whether its inhibition is greater than or equal to 30%.
Output: not fulfilled

Task: Textbook exercise: given the entry COc1ccc(-c2cc(-c3c[nH]nc3-c3ccccn3)ccn2)cc1 , state whether its inhibition is greater than or equal to 30%.
Output: fulfilled

Task: Textbook exercise: given the entry COc1cc(/C=N/Nc2ncnc3[nH]ncc23)ccc1O , state whether its inhibition is greater than or equal to 30%.
Output: fulfilled

====

Provide the recorded inhibition for the entries that follow.
study.system: Glycogen synthase kinase-3 beta (Homo sapiens);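 also: values are mean percent inhibition of GSK3B activity, from the GSK Published Kinase Inhibitor Set (PKIS) screening dataset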
assay.context: at 0.1 µM
Dear colleague, please return just the value in %, with no unit written.

Task: Please report inhibition for the following molecule: COc1cc2c(cc1Nc1nc(Nc3ccsc3C(N)=O)c3cc[nH]c3n1)N(C(=O)CN(C)C)CCC2(C)C
Output: 5.85

Task: Please report inhibition for the following molecule: CN1CCC(n2cnc(-c3ccc(F)cc3)c2-c2ccnc(N)n2)CC1
Output: 1.11

Task: Please report inhibition for the following molecule: COc1cc(/C=N/Nc2ncnc3[nH]ncc23)ccc1O
Output: 7

Task: Please report inhibition for the following molecule: N#Cc1c(NC(=O)CN2CCOCC2)sc2c1CCCC2
Output: 11

Task: Please report inhibition for the following molecule: [O-][S+]1CCN(Cc2ccc(-c3ccc4ncnc(Nc5ccc(OCc6cccc(F)c6)c(Cl)c5)c4c3)o2)CC1
Output: 3.06

Task: Please report inhibition for the following molecule: CCn1c(-c2nonc2N)nc2c(C#CC(C)(C)O)nc(OC[C@H](N)c3ccccc3)cc21
Output: 30

Task: Please report inhibition for the following molecule: CCn1c(-c2nonc2N)nc2ccccc21
Output: 3.21

Task: Please report inhibition for the following molecule: CCN(CC)S(=O)(=O)c1ccc(OC)c(Nc2ncc(-c3ccccc3)o2)c1
Output: 0.79

Task: Please report inhibition for the following molecule: COc1ccc2[nH]c3c4[nH]c5ccc(OC)cc5c4c4c(c3c2c1)C(=O)NC4=O
Output: 3.92

Task: Please report inhibition for the following molecule: COc1ccc(-c2nn3ncccc3c2-c2ccnc(Nc3ccc4c(c3)OCCO4)n2)cc1
Output: -0.07

Task: Please report inhibition for the following molecule: CCOc1ccc2c(-c3ccnc(Nc4cccc(C(F)(F)F)c4)n3)cnn2n1
Output: 5.68

Task: Please report inhibition for the following molecule: NS(=O)(=O)c1ccc(N/N=C2\C(=O)Nc3ccc4ncccc4c32)cc1
Output: 53.5

Task: Please report inhibition for the following molecule: O=C(O[C@H]1CN[C@H](C#Cc2cc3ncnc(Nc4ccc(Cc5ccccc5)cc4)c3s2)C1)N1CCOCC1
Output: 0.78

Task: Please report inhibition for the following molecule: Clc1ccc(-c2nn3ncccc3c2-c2ccnc(Nc3ccccc3)n2)cc1
Output: 2.61

Task: Please report inhibition for the following molecule: COC(=O)Nc1nc2ccc(S(=O)(=O)c3ccc(NC(=O)Nc4cc(C(F)(F)F)ccc4F)cc3)cc2[nH]1
Output: 0.8

Data provenance is ChEMBL document CHEMBL1961873.
